Every entry's value here was drawn from a melting point compilation (Tetko et al.; mined from patent text by program, amines drawn as free bases though some values may be those of a salt).

Listing: melting point of selected compounds

CCOC(=O)COc1cc2cc(C3CCCC3)sc2c(Cl)c1Cl :: 65 to 67 °C
CCCOCCc1ccc(-c2ccc3c(c2)C=C(C(=O)Nc2ccc(CN(C)C4CCOCC4)cc2)CCS3(=O)=O)c(F)c1 :: 172 to 174 °C
COCCOCC(=O)N(c1c(C)c(C)cc2ccccc12)C1CCOC1=O (stereo unspecified) :: 142 to 146 °C
CCOC(=O)Nc1ccc2ccccc2c1 :: 69 to 70.5 °C
CCCCCC(=O)N(C)Cc1cc(-c2ccc(C[C@H](OCC)C(=O)O)cc2)cs1 :: 65 °C

Given the entry CC(C)(N)c1ccc(-c2nc(Nc3cc(F)cc(F)c3)ncc2C#N)cc1 , report its measured melting point.
209 °C

Request the reported melting point associated with NC(=O)Cn1c(-c2ccccc2)nc2cccnc21
226 to 227 °C

# get_value(readout='melting point', item= CN1CCN(c2nc3c(cc2F)c(=O)n(OCc2ccccc2)c(=O)n3C2CC2)CC1 )
188 to 189 °C

Query (compound): CCOC(=O)C1=NNc2ccc(-c3ccc(Cl)cc3)cc2C1 ; field requested: melting point
254 to 256 °C

What value of melting point has been reported for the following compound? CC(C)(C)C(=O)OCC(COC(=O)C(C)(C)C)OCn1cnc2c(=O)[nH]c(N)nc21
230 to 232 °C

I have this compound here, O=C(NC(CO)Cc1ccc(O)cc1)OCC1CCCCC1 (stereo unspecified) , and I need its recorded melting point.
121 to 126 °C

Data request, read-out melting point, for Cc1cccc(NC(N)=S)c1N1CCOCC1
178 to 179 °C

// lookup melting point for O=c1c2c(n(-c3cccc(Cl)c3)c3ncccc13)CCN(Cc1ccccc1)C2
157 to 161 °C

Given the entry C=CC[C@H]1C[C@@](OS(C)(=O)=O)(C(=O)OC)C[C@@H](OC(=O)c2ccccc2)[C@@H]1O , report its measured melting point.
46 to 47 °C

Look at this compound and give its reported melting point. COc1cc(COc2nn(Cc3cccnc3)cc2CO)ccc1OCc1nc(-c2ccco2)oc1C
90 to 91 °C

Fill in the blank: the reported melting point of CCOC(=O)C=C1CSC(NC(=O)c2ccccc2)=NN1C(=O)c1ccccc1 is ____.
187 to 189 °C

What measured melting point goes with S=C=NCC1CC(c2ccc(Br)cc2)=NO1 (stereo unspecified) ?
123 to 125 °C

// returns reported melting point for input CC1(C)CCC(C)(C)c2nc3c(nc21)CCc1c(-c2ccc(C(=O)O)cc2)cn(Cc2cccnc2)c1-3
149 to 151 °C

So what's the measured melting point for this one? Cc1ccc2c(c1C)OC(C)(C)C2=O
79 to 81 °C

# query: melting point of entry Cc1cc(C=Cc2ccccc2OCC(O)C(N)C(C)C)on1 (stereo unspecified)
106 to 108 °C

Value lookup for melting point; key = Cc1cccc(Nc2cc(Cl)nc(SCC(=O)NC(C)C)n2)c1C
156 to 158 °C
